Target: T1, Cynomolgus Monkey VSIG4-L-His (cynomolgus monkey)
T1 construct: ECD with His tag; also called cyVSIG4-L; cyno VSIG4-L-His
T1 chain: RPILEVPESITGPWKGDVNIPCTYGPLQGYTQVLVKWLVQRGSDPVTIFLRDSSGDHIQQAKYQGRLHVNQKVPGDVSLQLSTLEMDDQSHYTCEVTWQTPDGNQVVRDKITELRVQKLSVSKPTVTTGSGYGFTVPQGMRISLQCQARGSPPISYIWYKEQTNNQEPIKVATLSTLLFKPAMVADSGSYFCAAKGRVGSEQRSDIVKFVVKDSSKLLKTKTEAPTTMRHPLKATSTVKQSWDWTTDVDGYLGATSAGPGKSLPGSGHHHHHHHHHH
Assay: ELISA, IgG 50 nM on coated antigen;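 further: Mouse-human chimeric IgG4 antibodies incubated 1 h on plate-coated VSIG4 proteins, bound IgG detected with HRP-labelled anti-human IgG, irrelevant antibody and protein as specificity controls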
Each entry below carries its reported ELISA OD450.
QUANTITY NAME: ELISA OD450 (OD450)

[[record]]
binder = "13H11 mouse/human chimeric IgG4 (S228P) kappa (antibody, V domains shown) VH: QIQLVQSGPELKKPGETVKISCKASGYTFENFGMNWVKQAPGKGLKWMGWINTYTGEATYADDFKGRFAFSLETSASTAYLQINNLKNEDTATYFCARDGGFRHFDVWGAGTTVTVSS VL: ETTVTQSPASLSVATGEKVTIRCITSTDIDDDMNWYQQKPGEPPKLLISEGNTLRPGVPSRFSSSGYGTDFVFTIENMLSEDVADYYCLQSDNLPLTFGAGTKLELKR"
uom = "OD450"
measured_number = 4.37

[[record]]
binder = "12A08 mouse/human chimeric IgG4 (S228P) kappa (antibody, V domains shown) VH: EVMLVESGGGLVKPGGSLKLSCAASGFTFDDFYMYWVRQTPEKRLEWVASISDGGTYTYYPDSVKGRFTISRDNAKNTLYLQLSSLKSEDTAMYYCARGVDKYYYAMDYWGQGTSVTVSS VL: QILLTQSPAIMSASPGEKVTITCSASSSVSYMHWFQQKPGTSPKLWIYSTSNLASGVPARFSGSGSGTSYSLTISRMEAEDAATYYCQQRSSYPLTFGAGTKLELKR"
uom = "OD450"
measured_number = 4.43

[[record]]
binder = "14C05 mouse/human chimeric IgG4 (S228P) kappa (antibody, V domains shown) VH: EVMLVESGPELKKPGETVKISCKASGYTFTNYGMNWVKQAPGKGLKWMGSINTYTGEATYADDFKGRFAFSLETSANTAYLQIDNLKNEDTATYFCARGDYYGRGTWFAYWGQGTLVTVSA VL: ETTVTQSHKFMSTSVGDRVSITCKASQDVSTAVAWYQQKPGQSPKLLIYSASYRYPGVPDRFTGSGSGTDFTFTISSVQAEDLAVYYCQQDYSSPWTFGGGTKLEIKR"
uom = "OD450"
measured_number = 4.52

[[record]]
binder = "16E10 mouse/human chimeric IgG4 (S228P) kappa (antibody, V domains shown) VH: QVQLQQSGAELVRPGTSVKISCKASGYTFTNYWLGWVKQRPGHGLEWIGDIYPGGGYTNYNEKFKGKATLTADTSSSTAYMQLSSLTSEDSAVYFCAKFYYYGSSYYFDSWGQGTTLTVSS VL: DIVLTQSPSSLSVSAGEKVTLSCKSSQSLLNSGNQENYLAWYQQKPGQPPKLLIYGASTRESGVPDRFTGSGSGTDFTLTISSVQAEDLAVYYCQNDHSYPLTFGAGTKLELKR"
uom = "OD450"
measured_number = 4.5

